# Tested on: portal vein isolated from rat
# measurementProtocol: Test 1: Inhibition of the contraction induced by noradrenaline in portal vein isolated from rat
# Format: cell-based
# testConditions: Rattus norvegicus, 0.5 h, contraction induced by noradrenaline (3µM), compounds incubated for 30 minutes, 50% inhibition versus the basal response, read-out: IC₅₀
quantityName: IC50 (µM)

(P) CC1(C)Oc2ccc(C#N)cc2[C@@H](NC(=O)C2CCCCN2C(=O)Oc2ccccc2)[C@@H]1O (relative stereo)
(Q) CC(C)(C)OC(=O)N1CCC[C@H]1C(=O)N[C@@H]1c2cc(C#N)ccc2OC(C)(C)[C@H]1O
(R) CC1(C)Oc2ccc(C#N)cc2[C@@H](NC(=S)N2CCCCC2)[C@@H]1O (relative stereo)
(S) CC(C)(C)OC(=O)N1CCCCC1C(=O)N[C@@H]1c2cc(C#N)ccc2OC(C)(C)[C@H]1O (relative stereo)
Query: Sort the listed compounds above so the one with the largest IC50 comes first and the smallest comes last. Hello, could you send the labels back in the order asked? Thank you.
Reply: S, R, Q, P

* * *

# Test system: portal vein isolated from rat
# measurementProtocol: Test 1: Inhibition of the contraction induced by noradrenaline in portal vein isolated from rat
# Type: cell-based
# testConditions: Rattus norvegicus, 0.5 h, contraction induced by noradrenaline (3µM), compounds incubated for 30 minutes, 50% inhibition versus the basal response, read-out: IC₅₀
# Protocol: Test 1: Inhibition of the contraction induced by noradrenaline in portal vein isolated from rat. Portal vein was extracted from adult male rats (between 200 and 250 g of body weight), which had been stunned by a blow in the head. […] Portal vein contraction was measured with an isometric force transducer and with an initial tension of 1 g. […]
pIC50: −log10 of the molar value.
quantityName: pIC50

Solved entries:
[[record]]
compound = "CC1(C)Oc2ccc(C#N)cc2[C@@H](NC(=S)N2CCCC2)[C@@H]1O (relative stereo)"
recordedresult = 5.51

[[record]]
compound = "CC1(C)Oc2ccc(C#N)cc2[C@@H](NC(=O)[C@@H]2CCCN2C(=O)Oc2ccccc2)[C@@H]1O (mixture of isomers)"
recordedresult = 5.60


(A) CN1CCN(C(=S)N[C@@H]2c3cc(C#N)ccc3OC(C)(C)[C@H]2O)CC1 (relative stereo)
(B) CC1(C)Oc2ccc(C#N)cc2[C@H](NC(=O)[C@@H]2CCCN2C(=O)OCc2ccccc2)[C@H]1O
(C) CC1(C)Oc2ccc(C#N)cc2[C@@H](NC(=O)[C@@H]2CCCN2C(=O)OCc2ccccc2)[C@@H]1O
Query: Ascending by pIC50, please: list the compounds accordingly. I'd appreciate it if you listed the labels in the requested order.
Reply: A, B, C

(1) COc1cccc(COC(=O)N2CCC[C@H]2C(=O)N[C@@H]2c3cc(C#N)ccc3OC(C)(C)[C@H]2O)c1 (mixture of isomers)
(2) CC1(C)Oc2ccc(C#N)cc2[C@@H](NC(=O)C2CCCCN2C(=O)OCc2ccccc2)[C@@H]1O (relative stereo)
Query: For the pair 1 and 2 , which member has the lower pIC50 number? // respond with label for picked entry
Reply: 2
(2: 6.10, 1: 6.30)

(A) CC1(C)Oc2ccc(C#N)cc2[C@@H](NC(=O)C2CCCCC2)[C@@H]1O (relative stereo)
(B) CC1(C)Oc2ccc(C#N)cc2[C@@H](NC(=O)[C@@H]2CCCN2C(=O)OCc2cccc(Cl)c2)[C@@H]1O (mixture of isomers)
Query: Hi there! Just curious which has the higher pIC50 between A and B . Response format: the label of the selected entry.
Reply: B
